system: Tov112D; test: Primary qHTS to identify gynecologic anti-cancer compounds using libraries of approved drugs and bioactive compounds (AID 1345084); details: Gynecologic cancer cell panel viability, ATPlite luminescence, 48 h; series mostly up to 57.5 µM; further: nearly all actives have a fitted effect of over 55% in size
Inconclusive results are not listed. Active and inactive are the calls of the source. The call rests on the fitted dose curve; in most records, active means well fitted cell-killing curve with a large enough effect; inconclusive means small, poorly fitted or top-dose-only effect, or effect the other way; inactive means flat fitted curve, though single readings scatter.
Can you answer with just one of these options? active, inactive

{"Molecule": "COc1ccc2c(c1)C[C@H](C(=O)Nc1ccc(-c3cn[nH]c3)cc1OCCN(C)C)CO2", "Cat": "inactive"}
{"Molecule": "CCOP(=O)(Cc1ccc(C(=O)Nc2ccc(Br)cc2C#N)cc1)OCC", "Cat": "inactive"}
{"Molecule": "Nc1ncnc2c1ncn2[C@@H]1O[C@H](CO)C[C@H]1O", "Cat": "inactive"}

// param item: `N#C[C@@H]1C[C@@H]2C[C@@H]2N1C(=O)[C@@H](N)C12CC3CC(CC(O)(C3)C1)C2` ; yields the recorded call
inactive

// param item: `COc1cc(O)c(C(=O)CCc2ccc(O)cc2)c(O[C@@H]2O[C@H](CO)[C@@H](O)[C@H](O)[C@H]2O)c1` ; yields the recorded call
inactive

// param item: `COc1ccc(CNC(=O)Nc2ncc([N+](=O)[O-])s2)cc1` ; yields the recorded call
inactive

// param item: C=C1[C@@H](C2=CC(=O)OC2)CC[C@@]2(O)[C@@H]1CC1[C@H]2CC[C@@H]2C[C@@H](O[C@H]3O[C@@H](C)[C@@H](O[C@@H]4O[C@H](CO[C@@H]5O[C@H](CO)[C@@H](O)[C@H](O)[C@H]5O)[C@@H](O)[C@H](O)[C@H]4O)[C@H](OC)[C@H]3O)CC[C@]12C (stereo partly drawn) ; yields the recorded call
active

// param item: `CC(C)(C)c1ccc(-c2nc3ccccc3[nH]2)cc1` ; yields the recorded call
active

Where do the numbers come from? From PubChem BioAssay (NCATS).
